The reader will find reported IC50 values listed item by item below.
# Test details: Inhibition of [3H]BTX binding to guinea pig voltage-dependent sodium channel
Express your answer in µM, writing the number without its unit.

| Compound | IC50 / µM |
| --- | --- |
| CN1CCC(OC(=O)c2ccccc2-c2ccccc2)CC1 | 10 |
| Cc1ccc(C(=O)OC2CCN(C)CC2)cc1 | 10 |
| CN1CCC(C)(OC(=O)c2ccccc2-c2ccccc2)CC1 | 3.8 |
| CN1CCC(OC(=O)c2ccccc2Oc2ccccc2)CC1 | 3.6 |
| CCN(CC)CC(C)OC(=O)c1ccccc1-c1ccccc1 (stereo not drawn) | 6.8 |

# compound "CN1CCC(OC(=O)c2ccc(-c3ccccc3)cc2)CC1" ; its IC50 = 10
